Test system: SK-MEL-2
experimental.protocol: NCI tumour cell line growth inhibition, 48 h
The source made the active and inactive calls. Rule as the data show it: active = GI50 up to about 1.1 µM and inactive = higher.
reported.metric: GI50

COc1ccc(/C=C(\C2=NC(=O)CS2)c2nc3ccccc3[nH]2)cc1 | 24 µM (inactive)
O=c1c(Sc2ncccn2)c(Sc2ncccn2)cnn1CCl | 2.22 µM (inactive)
CO[C@H]1c2cccc3cccc(c23)[C@@H]1n1[nH]c(=O)n(C(C)(C)C)c1=O | > 100 µM (inactive)
CCOC(=O)/C=C(\C(=O)OCC)n1ccc(=O)n(Cc2cnnn2CCCCOC(C)=O)c1=O | 14.7 µM (inactive)
O=C(O)c1ccccc1NCn1c(=S)sc2ccccc21 | > 100 µM (inactive)

Need GI50 of [O-][S+]1c2ccc(Cl)cc2CC(SSC2Cc3cc(Cl)ccc3[S+]([O-])c3ccccc32)c2ccccc21 (stereo not given) , thanks.
> 100 µM (inactive)

Need GI50 of `O=[N+]([O-])c1cccc(/N=N/c2c(O)c(S(=O)(=O)O)cc3cc(S(=O)(=O)O)ccc23)c1` , thanks.
> 100 µM (inactive)

Need GI50 of `CCCCCCCCCCCCCCCCP(=O)([O-])OCC[N+](C)(C)C` , thanks.
15.1 µM (inactive)

Need GI50 of `S=C1/C(=N/c2ccccc2)N(C2CCCCC2)/C(=N\C2CCCCC2)N1c1ccccc1` , thanks.
> 100 µM (inactive)

Need GI50 of `IC[P+]1(c2ccccc2)CCCC1` , thanks.
> 100 µM (inactive)

---

Measured GI50, listed per entry.
Test system: HOP-62
experimental.protocol: NCI tumour cell line growth inhibition, 48 h
Activity calls are given as the source filed them. Cut-off read from the data, not from the text of the source: active = GI50 up to about 1.1 µM and inactive = higher.

Worked set:
Nc1c(OCC(=O)O)ccc2cc(S(=O)(=O)O)ccc12 | > 100 µM (inactive)
CC1(Cl)CC(C)(/C=C/Cl)C(Cl)CC1Cl (configuration not stated) | 19.9 µM (inactive)
Cc1c(C(=O)/C=C/c2ccccc2)[n+]([O-])c2ccccc2[n+]1[O-] | 18.1 µM (inactive)
COc1c(O)c2c3c(c(C)cc(O)c3c1O)C(=O)C(O)(C(C)(C)C(C)=O)C2=O (configuration not stated) | > 100 µM (inactive)
O=C(Nc1ccccc1)O/N=C1/CCCC/C1=C\c1ccccc1 | 21.9 µM (inactive)
CC(C)CC(N/C=C1/N=C(c2ccccc2)OC1=O)C(=O)O (configuration not stated) | > 100 µM (inactive)
O=C(c1cccc2ccccc12)C1S(=O)(=O)OCCOS1(=O)=O | > 100 µM (inactive)
OCC1COc2cc(Cl)c(Cl)cc2O1 (configuration not stated) | > 10 µM (inactive)

Need GI50 of `O=c1[nH]c2nc(S)nc(S)c2[nH]1` , thanks.
> 100 µM (inactive)

Need GI50 of `CC1(C)CCC2=C(O1)/C(=N\Nc1ccccc1)c1ccccc1C2=O` , thanks.
35.4 µM (inactive)

Need GI50 of `O=c1oc2c(ccc3c(O)cccc32)c2c1CCCC2` , thanks.
18.9 µM (inactive)

Need GI50 of `CN(C)CCNC(=O)c1cccc2cc3cc(O)ccc3nc12` , thanks.
1.06 µM (active)

---

System: HOP-62
experimental.protocol: NCI tumour cell line growth inhibition, 48 h
Active and inactive are the calls of the source. Cut-off read from the data, not from the text of the source: active = GI50 up to about 1.1 µM and inactive = higher.
Field 'call' accepts active, inactive

Please indicate how the test categorized [N-]=[N+]=NC1(c2ccccc2)C(=O)c2cccc3c4ccccc4n(c23)C1=O (stereo not drawn) .
inactive

Please indicate how the test categorized `CC(=O)CC(=O)N(CCN(C(=O)CC(C)=O)c1ccccc1)c1ccccc1` .
inactive

Please indicate how the test categorized CC(=O)C1(O)Cc2c(O)c3c(c(O)c2C(OC2CC(N)C(O)C(C)O2)C1)C(=O)c1ccccc1C3=O (stereo not drawn) .
active

Please indicate how the test categorized `C[C@H]1[C@H]2[C@H]3CC[C@@H]4[C@@]5(C)CC[C@H](O)C(C)(C)[C@@H]5CC[C@@]4(C)[C@]3(C)C[C@H](O)[C@@]2(C)C[C@H]2O[C@]21C` .
inactive
